# test.description: Clearance in rat at 2.5 mg/kg by LC-MS/MS analysis
# Assay type: ADME, organism-based
# test.parameters: in vivo
outcome.measure: clearance (mL/min/kg)
Enter your answer as a number in mL/min/kg; do not include the unit.

Consider the molecule CC(=O)N[C@@H](CC(C)C)C(=O)N[C@H](C(=O)N[C@@H](Cc1ccccc1)C(=O)N[C@]1(C)CCCCCC/C=C/CCC[C@@](C)(C(=O)N[C@@H](C)C(=O)N[C@@H](C)C(=O)N[C@@H](C)C(=O)N[C@@H](C)C(=O)N[C@@H](C)C(=O)N[C@H](C)C(N)=O)NC(=O)[C@H](CC(C)C)NC(=O)[C@H](CCC(N)=O)NC(=O)[C@H](C)NC(=O)[C@H](Cc2c[nH]c3ccccc23)NC(=O)[C@H](Cc2ccc(O)cc2)NC(=O)[C@H](CCC(=O)O)NC1=O)[C@@H](C)O . State its measured clearance.
0.467

Attribution: ChEMBL document CHEMBL5346962
